Exercise: state measured protein stability index for each of the variants provided.
B1: DLC1 (parent)
chain: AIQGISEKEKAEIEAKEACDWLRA

- Variants of: B1
- experiment summary: protein stability index of a GFP-peptide fusion (GPS, HEK-293T) (PSI 1-6); higher = more stable;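 further: lentivirally expressed fusions sorted by FACS into six bins by GFP to DsRed ratio, PSI derived from sequencing read proportions per bin multiplied by bin number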
- cond: c terminus: a fixed tail appended
Lab note: record the figure alone, no unit after it.

protein stability index in this record for AIQGISEKTKAEIEAKEACDWLRA [E9T] : 4.12

protein stability index in this record for AIQGISEKEKHEIEAKEACDWLRA [A11H] : 4.34

protein stability index in this record for AIQGISEKEKAEIEAKKACDWLRA [E17K] : 4.23

protein stability index in this record for AIQGISEMEKAEIEAKEACDWLRA [K8M] : 4.49

protein stability index in this record for AIQGISEKEPAEIEAKEACDWLRA [K10P] : 4.18

protein stability index in this record for AIQGISEKEKAEIEAKEHCDWLRA [A18H] : 4.8

protein stability index in this record for AIQGISEKEKAEIEAKELCDWLRA [A18L] : 4.2

protein stability index in this record for AIQGISMKEKAEIEAKEACDWLRA [E7M] : 3.67

protein stability index in this record for AIQGISEKEKAEIEAKEACDWARA [L22A] : 5.03

protein stability index in this record for AIQGISEKEKAEIEDKEACDWLRA [A15D] : 4.4

protein stability index in this record for AIQGISEKEKAEIEWKEACDWLRA [A15W] : 3.65

protein stability index in this record for AIQGISEKEKDEIEAKEACDWLRA [A11D] : 5.18

protein stability index in this record for AIQGISEKEKAEIEAKEACDWLHA [R23H] : 4.75

protein stability index in this record for AYQGISEKEKAEIEAKEACDWLRA [I2Y] : 4.24

protein stability index in this record for AIQGISEKEKAEIEAKEACDWVRA [L22V] : 4.73

protein stability index in this record for APQGISEKEKAEIEAKEACDWLRA [I2P] : 4.96

protein stability index in this record for AIQGISEKEKAEIEAKCACDWLRA [E17C] : 3.92

protein stability index in this record for AIQGISEKEVAEIEAKEACDWLRA [K10V] : 3.9

protein stability index in this record for AAQGISEKEKAEIEAKEACDWLRA [I2A] : 4.94

protein stability index in this record for AIQGISEKEKAGIEAKEACDWLRA [E12G] : 4.42

protein stability index in this record for AIFGISEKEKAEIEAKEACDWLRA [Q3F] : 3.61

protein stability index in this record for AIQGISEKEKAEIEAQEACDWLRA [K16Q] : 4.44
